Biological target: T1, recombinant human GPC1 protein (R&D Systems) (human, UniProt P35052 24-530)
T1 construct: Bought recombinant protein (R&D Systems); also called human GPC-1 antigen; Glypican-1
T1 sequence: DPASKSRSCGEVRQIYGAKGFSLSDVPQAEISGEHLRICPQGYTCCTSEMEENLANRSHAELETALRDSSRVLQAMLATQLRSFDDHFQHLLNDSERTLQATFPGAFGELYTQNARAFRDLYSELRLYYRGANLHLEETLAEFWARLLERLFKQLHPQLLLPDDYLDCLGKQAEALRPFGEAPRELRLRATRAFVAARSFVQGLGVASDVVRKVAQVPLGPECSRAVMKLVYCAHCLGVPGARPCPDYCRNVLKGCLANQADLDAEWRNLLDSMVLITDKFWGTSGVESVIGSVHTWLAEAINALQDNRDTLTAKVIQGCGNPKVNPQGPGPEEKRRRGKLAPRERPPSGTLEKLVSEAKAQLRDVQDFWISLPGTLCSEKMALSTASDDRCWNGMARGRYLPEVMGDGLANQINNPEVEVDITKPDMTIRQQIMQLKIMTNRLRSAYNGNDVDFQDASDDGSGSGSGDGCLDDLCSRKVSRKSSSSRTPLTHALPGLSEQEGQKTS
Assay: SPR (Biacore 8K); antibody captured by anti-human IgG (Fc) on a CM5 chip, recombinant human GPC1 flowed over
Experimental: The mouse anti-human-GPC1 monoclonal antibody was humanized (subclass: IgG4), and the obtained twenty clones (T1, T2, T3, T7, T8, T10, T11, T22, T26, T28, T29, T31, T32, T33, T34, T36, T43, T56, T57, T59) were prepared. […]
# koff per record follows
Kindly provide the numeric value in s⁻¹ only, without the unit symbol.

Illustrative cases are given below, each with its answer.
>  <BINDER>
humanized anti-GPC1 monoclonal antibody clone T31 (antibody, human IgG4 S228P, kappa, V domains shown, IgG) VH: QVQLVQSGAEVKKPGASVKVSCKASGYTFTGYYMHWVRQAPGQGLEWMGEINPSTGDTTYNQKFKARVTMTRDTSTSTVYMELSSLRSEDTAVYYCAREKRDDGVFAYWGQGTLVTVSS VL: AIQMTQSPATLSLSPGQRATLSCRASQSVSNYLAWYQQKPGQAPRLLIYDVSNRASGIPARFSGSGSGTDFTLTISSLEPEDFAIYYCQQRSNWPLTFGQGTKVDIKR

>  <UNIT_OF_MEASURE>
s⁻¹

>  <koff>
0.0539

$$$$
>  <BINDER>
humanized anti-GPC1 monoclonal antibody clone T57 (antibody, human IgG4 S228P, kappa, V domains shown, IgG) VH: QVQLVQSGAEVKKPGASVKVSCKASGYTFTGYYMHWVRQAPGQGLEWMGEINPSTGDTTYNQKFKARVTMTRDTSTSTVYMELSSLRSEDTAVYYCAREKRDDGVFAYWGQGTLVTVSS VL: EIVMTQSPSSLSASVGDRVTISCRTSQTIRHYLNWYQQKPGKAPKLLIYDASNLKTGVPSRFSGSGSGTSFTLTISSLQPDDFATYYCQQSYSTPRTFGQGTKVEIKR

>  <UNIT_OF_MEASURE>
s⁻¹

>  <koff>
0.0135

$$$$

// moving on: another record for koff
Documented koff of humanized anti-GPC1 monoclonal antibody clone T32 (antibody, human IgG4 S228P, kappa, V domains shown, IgG) VH: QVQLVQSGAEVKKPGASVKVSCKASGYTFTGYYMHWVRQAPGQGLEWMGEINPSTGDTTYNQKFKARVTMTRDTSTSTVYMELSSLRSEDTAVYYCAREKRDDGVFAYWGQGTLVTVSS VL: DVVMTQSPGTLSLSPGERATLSCSASQSVSSNLAWYQQKPGQAPRLLIYGTSSRATGVPARFSGSGSGTEFTLTISSLQSEDFAAYYCQQYNSWPLTFGGGTKVEIKR : 0.0603
